System: H9
Experiment: Cytotoxicity against human H9 cells after 6 days by XTT assay
Assay type: cell-based
Details: h9, 144 h
Criterion: CC50 strictly less than 40 µM. Met: Met. Not met: Not met.

Some solved entries appear below for comparison.
> print(dat)
                              chemicalstring  targetentity    label
 1  Cc1cc(C#N)cc(C)c1Oc1ccc(N)c(Nc2ccc(C#N)cc2)c1            H9  Not met
 2  COc1ccc(Nc2cc(Oc3c(C)cc(C)cc3C)c([N+](=O)[O-])cc2[N+](=O)[O-])cc1            H9  Not met
 3  Cc1cc(Br)cc(C)c1Oc1ccc([N+](=O)[O-])c(Nc2ccc(C#N)cc2)c1            H9  Not met
 4  Cc1cc(C=O)cc(C)c1Oc1cc(Nc2ccc(C#N)cc2)c([N+](=O)[O-])cc1[N+](=O)[O-]            H9  Not met
 5  Cc1cc(C)c(Oc2cc(Nc3ccc(C#N)cc3)c(N)cc2[N+](=O)[O-])c(C)c1            H9      Met
 6  Cc1cccc(C)c1Oc1ccc([N+](=O)[O-])c(Nc2ccc(C#N)cc2)c1            H9  Not met
 7  Cc1cc(C=O)cc(C)c1Oc1ccc([N+](=O)[O-])c(Nc2ccc(C#N)cc2)c1            H9      Met
 8  Cc1cc(C)c(Oc2cc(Nc3ccc(C#N)cc3)c([N+](=O)[O-])cc2[N+](=O)[O-])c(C)c1            H9  Not met
 9  Cc1cc(C#N)cc(C)c1Oc1cc(Nc2ccc(C#N)cc2)c(N)cc1[N+](=O)[O-]            H9  Not met
10  Cc1cccc(C)c1Oc1cc(Nc2ccc(C#N)cc2)c([N+](=O)[O-])cc1[N+](=O)[O-]            H9  Not met

Problem: is_below(CC50, 40 µM) for Cc1cc(Br)cc(C)c1Oc1ccc(N)c(Nc2ccc(C#N)cc2)c1 ?
Result: Not met

Problem: is_below(CC50, 40 µM) for COc1ccc(Nc2cc(Oc3c(C)cccc3C)c([N+](=O)[O-])cc2[N+](=O)[O-])cc1 ?
Result: Not met

Problem: is_below(CC50, 40 µM) for Cc1cc(C#N)cc(C)c1Oc1cc(Nc2ccc(C#N)cc2)c(N)cc1N ?
Result: Not met

Problem: is_below(CC50, 40 µM) for Cc1cc(Br)cc(C)c1Oc1cc(Nc2ccc([N+](=O)[O-])cc2)c([N+](=O)[O-])cc1[N+](=O)[O-] ?
Result: Not met

Problem: is_below(CC50, 40 µM) for Cc1cc(C)c(Oc2ccc(N)c(Nc3ccc(C#N)cc3)c2)c(C)c1 ?
Result: Not met

Problem: is_below(CC50, 40 µM) for Cc1cc(C#N)cc(C)c1Oc1cc(Nc2ccc(C#N)cc2)c([N+](=O)[O-])cc1[N+](=O)[O-] ?
Result: Not met

Problem: is_below(CC50, 40 µM) for Cc1cc(C#N)cc(C)c1Oc1ccc([N+](=O)[O-])c(Nc2ccc(C#N)cc2)c1 ?
Result: Not met

Problem: is_below(CC50, 40 µM) for Cc1cc(Br)cc(C)c1Oc1cc(Nc2ccc(C#N)cc2)c(N)cc1N ?
Result: Met

Problem: is_below(CC50, 40 µM) for Cc1cc(Br)cc(C)c1Oc1cc(Nc2ccc(C#N)cc2)c([N+](=O)[O-])cc1[N+](=O)[O-] ?
Result: Not met
